The molecules listed here are annotated with their pIC50.
Molecular target: human recombinant GCL (Homo sapiens (Human), UniProt P48506)
Sequence (P48506 whole entry): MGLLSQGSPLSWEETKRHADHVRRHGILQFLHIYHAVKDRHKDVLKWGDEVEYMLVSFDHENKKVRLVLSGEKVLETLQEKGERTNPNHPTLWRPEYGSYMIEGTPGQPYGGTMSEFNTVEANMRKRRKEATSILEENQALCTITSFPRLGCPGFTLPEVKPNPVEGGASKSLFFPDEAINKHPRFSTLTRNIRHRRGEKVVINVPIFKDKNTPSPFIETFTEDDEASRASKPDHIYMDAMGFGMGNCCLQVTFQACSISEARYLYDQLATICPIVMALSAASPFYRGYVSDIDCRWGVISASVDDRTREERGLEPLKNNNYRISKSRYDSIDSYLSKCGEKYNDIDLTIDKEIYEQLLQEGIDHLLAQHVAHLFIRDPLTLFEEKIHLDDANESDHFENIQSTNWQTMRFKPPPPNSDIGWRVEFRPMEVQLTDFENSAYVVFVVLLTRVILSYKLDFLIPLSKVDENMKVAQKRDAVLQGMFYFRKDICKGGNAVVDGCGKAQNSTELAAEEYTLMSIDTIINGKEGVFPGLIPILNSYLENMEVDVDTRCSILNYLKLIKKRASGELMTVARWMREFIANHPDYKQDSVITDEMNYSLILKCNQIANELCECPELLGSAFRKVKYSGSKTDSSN
Assay: GCL enzyme profiling assay (ADP-Glo luminescence)
Type: biochemical
Conditions: human recombinant GCL 5 nM, 1 h preincubation with ATP; read-out: GCL IC50
pIC50: −log10 of the molar value.

Would you please look over these solved cases?
INSERT INTO results (molecule, observed_value) VALUES
  ('N=S(=O)(CCCC(F)(F)F)CC[C@H](N)c1ncno1 (stereo partly shown)', '< 2.70'),
  ('N=S(=O)(CC[C@H](N)C(=O)O)CCC1(C(N)=O)CCC1 (stereo partly shown)', '2.70 to 4.70'),
  ('CC(C)(CCS(=N)(=O)CC[C@H](N)C(=O)O)c1ccccc1 (stereo partly shown)', '2.70 to 4.70');

Query :: Write pIC50 of N=S(=O)(CCC1CCCC1(F)F)CC[C@H](N)C(=O)O (stereo partly shown) ; system used: human recombinant GCL (Homo sapiens (Human), UniProt P48506)
Result :: ≥ 4.70

Query :: Please report the measured pIC50 for N=S(=O)(CCCc1ccccc1)CC[C@H](N)C(=O)O (stereo partly shown) tested on human recombinant GCL (Homo sapiens (Human), UniProt P48506).
Result :: 2.70 to 4.70

Query :: Return reported pIC50 for target or system human recombinant GCL (Homo sapiens (Human), UniProt P48506), item CC(C)(CCS(=N)(=O)CC[C@H](N)C(=O)O)C(N)=O (stereo partly shown) .
Result :: 2.70 to 4.70

Query :: Look up and report pIC50, with human recombinant GCL (Homo sapiens (Human), UniProt P48506) as system, for CCOC(=O)C1(CCS(=N)(=O)CC[C@H](N)C(=O)O)CCC1 (stereo partly shown)
Result :: 2.70 to 4.70

Query :: State pIC50 on human recombinant GCL (Homo sapiens (Human), UniProt P48506). Entry: N=S(=O)(CCC1CCCCC1)CC[C@H](N)C(=O)O (stereo partly shown)
Result :: ≥ 4.70

Query :: // fetch pIC50; item: CCCCS(=N)(=O)CC[C@H](N)C(=O)NCC#N (stereo partly shown) ; system: human recombinant GCL (Homo sapiens (Human), UniProt P48506)
Result :: < 2.70

###

Target: human recombinant GCL (Homo sapiens (Human), UniProt P48506)
Assay: GCL enzyme profiling assay (ADP-Glo luminescence)
Type: biochemical
Conditions: human recombinant GCL, ADP-Glo; read-out: GCL IC50
pIC50: −log10 of the molar value.
QUANTITY: pIC50

Worked cases, answers included:
INSERT INTO measurements (compound, target_or_system, observed_value) VALUES
  ('N=[S@](=O)(CC[C@H](N)C(=O)O)CCC(O)(c1ccccc1)C(F)(F)F (single isomer, unassigned)', 'human recombinant GCL (Homo sapiens (Human), UniProt P48506)', '< 2.70'),
  ('N=S(=O)(CCC(n1ccc(-c2cccnc2)n1)C(F)(F)F)CC[C@H](N)C(=O)O (stereo partly shown)', 'human recombinant GCL (Homo sapiens (Human), UniProt P48506)', '2.70 to 4.70'),
  ('N=S(=O)(CC[C@H](N)C(=O)O)CCC1(c2ccccn2)CCC1 (stereo partly shown)', 'human recombinant GCL (Homo sapiens (Human), UniProt P48506)', '2.70 to 4.70'),
  ('N=S(=O)(CCC(c1ccc(-c2cncc(F)c2)cc1)C(F)(F)F)CC[C@H](N)C(=O)O (stereo partly shown)', 'human recombinant GCL (Homo sapiens (Human), UniProt P48506)', '≥ 4.70'),
  ('N=S(=O)(CC[C@H](N)C(=O)O)CCC(O)(c1ccc(-n2cccn2)cc1)C(F)(F)F (stereo partly shown)', 'human recombinant GCL (Homo sapiens (Human), UniProt P48506)', '2.70 to 4.70'),
  ('CNC(=O)C(CCS(=N)(=O)CC[C@H](N)C(=O)O)C(F)(F)F (stereo partly shown)', 'human recombinant GCL (Homo sapiens (Human), UniProt P48506)', '2.70 to 4.70');

Query :: Supply reported pIC50 belonging to this compound: N=S(=O)(CC[C@H](N)C(=O)O)CCC(O)(C1CCN(c2ccc(Cl)cc2Cl)CC1)C(F)(F)F (stereo partly shown)
Result :: ≥ 4.70

###

Quick reference for IC50 among some compounds
Target: human recombinant GCL (Homo sapiens (Human), UniProt P48506)
Test: GCL enzyme profiling assay (ADP-Glo luminescence)
Format: biochemical
Conditions: human recombinant GCL 5 nM, 1 h preincubation with ATP; read-out: GCL IC50

// known answers, use as guide
INSERT INTO assay_data (compound, target_or_system, quantity, observed_value) VALUES
  ('N=S(=O)(CC[C@H](N)C(=O)O)CCN1CCCC1=O (some centres unmarked) [Compound 145]', 'human recombinant GCL (Homo sapiens (Human), UniProt P48506)', 'IC50', '> 2000 µM'),
  ('CC(C)(N)CCS(=N)(=O)CC[C@H](N)C(=O)O (some centres unmarked) [Compound 183]', 'human recombinant GCL (Homo sapiens (Human), UniProt P48506)', 'IC50', '> 2000 µM'),
  ('N=S(=O)(CC[C@H](N)C(=O)O)CCC1(c2ccccc2)CCC1 (some centres unmarked) [Compound 62]', 'human recombinant GCL (Homo sapiens (Human), UniProt P48506)', 'IC50', '≤ 20 µM'),
  ('N=S(=O)(CCc1cccs1)CC[C@H](N)C(=O)O (some centres unmarked) [Compound 48]', 'human recombinant GCL (Homo sapiens (Human), UniProt P48506)', 'IC50', '≤ 20 µM'),
  ('CC(C)(C)[C@H](N)CS(=N)(=O)CC[C@H](N)C(=O)O (some centres unmarked) [Compound 148]', 'human recombinant GCL (Homo sapiens (Human), UniProt P48506)', 'IC50', '20 to 2000 µM'),
  ('CCCCOC(=O)[C@@H](N)CCS(=N)(=O)CCC(C)(C)c1ccccc1 (some centres unmarked) [Compound 87]', 'human recombinant GCL (Homo sapiens (Human), UniProt P48506)', 'IC50', '20 to 2000 µM');

Query :: // fetch IC50 given entry N=S(=O)(CCc1cccc(C(F)(F)F)c1)CC[C@H](N)C(=O)O (some centres unmarked) [Compound 3]
Result :: 20 to 2000 µM

Query :: Kindly indicate its recorded IC50. Item: COCCCCS(=N)(=O)CC[C@H](N)C(=O)OC (some centres unmarked) [Compound 76]
Result :: 20 to 2000 µM

Query :: Return the recorded IC50 value; entry: N=S(=O)(CC[C@H](N)C(=O)O)Cc1ccccc1C(=O)O (some centres unmarked) [Compound 168]
Result :: 20 to 2000 µM

Query :: # return recorded IC50 for entry N=[S@](=O)(CCCC(F)(F)F)CC[C@H](N)C(=O)O [Compound 139]
Result :: ≤ 20 µM

Query :: # return recorded IC50 for entry CC(C)(C)CCS(=N)(=O)CC[C@H](N)C(=O)OC1CCCCC1 (some centres unmarked) [Compound 97]
Result :: > 2000 µM

Query :: Supply reported IC50 belonging to this compound: N=S(=O)(CCc1ccccc1)CC[C@H](N)C(=O)O (some centres unmarked) [Compound 2]
Result :: 20 to 2000 µM

Query :: Specify IC50 for CC(C)(C)[C@@H](N)CS(=N)(=O)CC[C@H](N)C(=O)O (some centres unmarked) [Compound 147] and stop.
Result :: > 2000 µM

Query :: Return reported IC50. Input compound: N=S(=O)(CCCC(F)(F)F)CC[C@H](N)C(=O)OC1CCCCC1 (some centres unmarked) [Compound 80]
Result :: 20 to 2000 µM

Query :: Supply IC50 value. Item: CCC(CS(=N)(=O)CC[C@H](N)C(=O)O)c1ccccc1C(F)(F)F (some centres unmarked) [Compound 47]
Result :: > 2000 µM

Query :: Name the recorded IC50 of the item CC(C)(C)OC(=O)[C@@H](N)CC[S@@](=N)(=O)CCCC(F)(F)F [Compound 93] in your answer.
Result :: 20 to 2000 µM

Query :: Report IC50 for N=S(=O)(CCOC(F)F)CC[C@H](N)C(=O)O (some centres unmarked) [Compound 170]
Result :: 20 to 2000 µM

###

Measured pIC50 accompanies every entry in the list below.
Molecular target: human recombinant GCL (Homo sapiens (Human))
Test: GCL enzyme profiling assay (ADP-Glo luminescence)
Assay type: biochemical
Settings: human recombinant GCL, ADP-Glo; read-out: GCL IC50
pIC50: −log10 of the molar value.

Below, each entry is followed by its recorded pIC50 result.
INSERT INTO assay_data (molecule, target_or_system, observed_value) VALUES
  ('N=S(=O)(CC[C@H](N)C(=O)O)CCC(O)(c1ccc(-c2cccc3ccccc23)cc1)C(F)(F)F (stereo partly shown) [Compound 444]', 'human recombinant GCL (Homo sapiens (Human))', '≥ 4.70'),
  ('N=S(=O)(CC[C@H](N)C(=O)O)CCC1(n2ncc(-c3ccccc3)n2)CCC1 (stereo partly shown) [Compound 420]', 'human recombinant GCL (Homo sapiens (Human))', '≥ 4.70'),
  ('N[C@H]1CC[S@@](=O)(CC[C@H](O)C(F)(F)F)=NC1=O [Compound 496]', 'human recombinant GCL (Homo sapiens (Human))', '2.70 to 4.70');

Now consider a different molecule.
Query :: Give the reported pIC50 for this molecule. C#CCNC(=O)[C@@H](N)CCS(=N)(=O)CCCC (stereo partly shown) [compound 493]
Result :: < 2.70

Hello, the source for this data is patent US20260034094A1, in case you need it.
